subject.of.test: T1, His-tagged Stx 2B-subunit (wild type) (enterohemorrhagic Escherichia coli O157:H7), P09386
T1 chain: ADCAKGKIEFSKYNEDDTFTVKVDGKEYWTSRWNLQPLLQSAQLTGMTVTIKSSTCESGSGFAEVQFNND
measured.attribute: RUmax (AU)
One number for each entry, in AU.

binder: MAPPRRNRRA (modifications not checked) [(Met-Ala-PPRRNRR-Ala-AHA-)4-3Lys]
measured.attribute: RUmax
unit: AU
readout.number: 1350

binder: MAKRRNPRRA (modifications not checked) [(Met-Ala-KRRNPRR-Ala-AHA-)4-3Lys]
measured.attribute: RUmax
unit: AU
readout.number: 1290

binder: MAPPPRRRRA (modifications not checked) [(Met-Ala-PPPRRRR-Ala-AHA-)4-3Lys]
measured.attribute: RUmax
unit: AU
readout.number: 1250

Lab note: next binder to report on.
Problem: Report RUmax, nothing else, for this binder: MAFRRNRRNA (modifications not checked) [(Met-Ala-FRRNRRN-Ala-AHA-)4-3Lys]
Solution: 1490
